Target: Thymidylate synthase (Homo sapiens, UniProt P04818)
Sequence (P04818 2-313 limits assumed): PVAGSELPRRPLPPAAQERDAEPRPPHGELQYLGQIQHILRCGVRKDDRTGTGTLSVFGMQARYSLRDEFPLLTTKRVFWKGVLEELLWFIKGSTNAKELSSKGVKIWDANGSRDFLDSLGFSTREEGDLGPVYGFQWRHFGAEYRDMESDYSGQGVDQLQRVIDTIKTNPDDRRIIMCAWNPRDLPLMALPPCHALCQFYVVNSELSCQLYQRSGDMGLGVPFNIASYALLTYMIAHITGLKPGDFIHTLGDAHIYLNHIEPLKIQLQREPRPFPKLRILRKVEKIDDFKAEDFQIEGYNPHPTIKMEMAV
Test: Inhibition of human thymidylate synthase using N5,N10-methylene tetrahydrofolate at 50 uM by chromogenic assay
The source made the active and inactive calls. The calls are words filed in the database; no cut-off is given here.
measurementKind: inhibition

[
  {
    "entrySmiles": "CN1C(=O)c2cccc(CNCCc3cccs3)c2C1=O",
    "measurementKind": "inhibition",
    "experimentalResult": "inactive"
  },
  {
    "entrySmiles": "CN1C(=O)c2cccc(CNc3cccc(S(N)(=O)=O)c3)c2C1=O",
    "measurementKind": "inhibition",
    "experimentalResult": "inactive"
  },
  {
    "entrySmiles": "Cc1cccc2c1C(=O)N(c1ccc(C(F)(F)F)cc1)C2=O",
    "measurementKind": "inhibition",
    "experimentalResult": "inactive"
  },
  {
    "entrySmiles": "CCOC(=O)c1ccc(NCc2cccc3c2C(=O)N(C)C3=O)cc1",
    "measurementKind": "inhibition",
    "experimentalResult": "inactive"
  },
  {
    "entrySmiles": "Cc1cccc2c1C(=O)N(c1ccnc(Cl)c1)C2=O",
    "measurementKind": "inhibition",
    "experimentalResult": "inactive"
  },
  {
    "entrySmiles": "CN1C(=O)c2cccc(CNc3ccc([N+](=O)[O-])c4ccccc34)c2C1=O",
    "measurementKind": "inhibition",
    "experimentalResult": "inactive"
  },
  {
    "entrySmiles": "Cc1cc(N2C(=O)c3cccc(C)c3C2=O)ccc1N1C(=O)c2ccc(Cl)cc2C1=O",
    "measurementKind": "inhibition",
    "experimentalResult": "inactive"
  },
  {
    "entrySmiles": "Cc1cccc2c1C(=O)N(c1nccs1)C2=O",
    "measurementKind": "inhibition",
    "experimentalResult": "inactive"
  }
]

Ask: Note down inhibition recorded for CN1C(=O)c2cccc(CNCCP(=O)(O)O)c2C1=O
Reply: inactive

Ask: Note down inhibition recorded for CN1C(=O)c2cccc(CNc3ccc(C(=O)O)cn3)c2C1=O
Reply: inactive

Ask: Note down inhibition recorded for Cc1cccc2c1C(=O)OC2=O
Reply: inactive

Ask: Note down inhibition recorded for Cc1cccc2c1C(=O)N(c1ccc(C(=N)N)cc1)C2=O
Reply: inactive

Ask: Note down inhibition recorded for Cc1cccc2c1C(=O)N(CCc1cccs1)C2=O
Reply: inactive

Ask: Note down inhibition recorded for Cc1cccc2c1C(=O)N(c1ccc(C#N)cc1)C2=O
Reply: inactive

Ask: Note down inhibition recorded for Cc1cccc2c1C(=O)N(c1cccc3[nH]ccc13)C2=O
Reply: inactive

Ask: Note down inhibition recorded for CC(=O)c1ccc(N2C(=O)c3cccc(C)c3C2=O)cc1
Reply: inactive

Ask: Note down inhibition recorded for Cc1cccc2c1C(=O)N(c1cc(C(=O)O)cc(C(=O)O)c1)C2=O
Reply: inactive

Ask: Note down inhibition recorded for CN1C(=O)c2cccc(CBr)c2C1=O
Reply: inactive

Ask: Note down inhibition recorded for Cc1cccc2c1C(=O)N(c1cccc(O)c1)C2=O
Reply: inactive

Ask: Note down inhibition recorded for CN1C(=O)c2cccc(CNc3ccc(C#N)cc3)c2C1=O
Reply: inactive

Ask: Note down inhibition recorded for CN1C(=O)c2cccc(CNc3ccc(C(=O)c4ccccc4)cc3)c2C1=O
Reply: inactive

###

Target: Thymidylate synthase (Enterococcus faecalis (strain ATCC 700802 / V583), UniProt Q834R3)
Sequence (Q834R3 whole entry): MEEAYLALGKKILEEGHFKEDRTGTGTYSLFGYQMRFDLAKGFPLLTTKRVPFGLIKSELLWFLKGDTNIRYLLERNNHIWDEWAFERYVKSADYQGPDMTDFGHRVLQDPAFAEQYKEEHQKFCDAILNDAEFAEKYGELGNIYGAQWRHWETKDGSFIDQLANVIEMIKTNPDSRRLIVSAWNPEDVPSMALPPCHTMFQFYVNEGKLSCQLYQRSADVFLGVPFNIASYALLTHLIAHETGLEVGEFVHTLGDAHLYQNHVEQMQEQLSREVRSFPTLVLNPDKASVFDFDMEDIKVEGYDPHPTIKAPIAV
Assay: Inhibition of Enterococcus faecalis thymidylate synthase using N5,N10-methylene tetrahydrofolate by chromogenic assay
measurementKind: Ki (µM)

Consider the worked cases shown below.
[
  {
    "entrySmiles": "Cc1cccc2c1C(=O)N(c1ccc(C(F)(F)F)cc1)C2=O",
    "Ki, µM": 60
  },
  {
    "entrySmiles": "COCCCNCc1cccc2c1C(=O)N(C)C2=O",
    "Ki, µM": 183
  },
  {
    "entrySmiles": "Cc1cccc2c1C(=O)N(c1cc(-c3ccccc3)ccc1O)C2=O",
    "Ki, µM": 2
  }
]

a = Cc1cccc2c1C(=O)N(c1ccc(C(=O)NCC(=O)O)cc1)C2=O
b = Cc1cccc2c1C(=O)N(c1cccc3[nH]ccc13)C2=O
c = CCOC(=O)c1ccc(NCc2cccc3c2C(=O)N(C)C3=O)cc1
d = Cc1cccc2c1C(=O)N(c1cccc(O)c1)C2=O
Ask: Please list the entries, largest Ki first. Could you list the labels in the order requested?
Reply: c, d, b, a
(c: 109 µM, d: 61 µM, b: 26 µM, a: 11 µM)

Taken from ChEMBL document CHEMBL1811787.
